Each recorded value in this set is attributed to ChEMBL document CHEMBL6182931.

Test: Inhibition of DNAJB1-PKAcalpha (unknown origin) using biotinylated-peptide substrate CREB incubated for 45 mins in presence of ATP and cAMP by ELISA
Design: species or system Homo sapiens
EXPERIMENTAL_ENDPOINT: pIC50
Scale for pIC50: -log10 of concentration given in mol/L; no unit attached.

The examples below pair each entry with its known result.
- CHEM_SMILES: "CN[C@H]1CCCN(C(=O)C2=CN(c3ncnc4[nH]cnc34)CCS2)C1"
  pIC50: 6.11
- CHEM_SMILES: "N[C@H]1CCCCN(C(=O)C2=CN(c3ncnc4[nH]ccc34)CCS2)C1"
  pIC50: 6.24
- CHEM_SMILES: "CN[C@@H]1CCCN(C(=O)C2=CN(c3ncnc4[nH]ccc34)CCS2)C1"
  pIC50: 7.06
- CHEM_SMILES: "CN(C[C@H]1CCCCN1)C(=O)C1=CN(c2ncnc3[nH]ccc23)CCS1"
  pIC50: 6.38
- CHEM_SMILES: "CCCc1cc2c(N3C=C(c4ccnc5[nH]ccc45)SCC3)ncnc2s1"
  pIC50: 5.96

## Input Requested read-out: pIC50. Entry: C[C@@]1(N)CCCN(C(=O)C2=CN(c3ccnc4[nH]ccc34)CCS2)C1
## Output 7.80

## Input Requested read-out: pIC50. Entry: Cc1c[nH]c2nccc(N3C=C(C(=O)N4CCC[C@@H](N)C4)SCC3)c12
## Output 7.43

====

The molecules listed here are annotated with their IC50.
Assay: Inhibition of DNAJB1-PKAcalpha (unknown origin) using biotinylated-peptide substrate CREB incubated for 45 mins in presence of ATP and cAMP by ELISA
Parameters: species or system Homo sapiens
Just the number in µM, nothing appended.

- CHEM_SMILES: "N[C@@H]1CCCC[C@H]1NC(=O)C1=CN(c2ncnc3[nH]ccc23)CCS1"
  IC50 / µM: 2.3
- CHEM_SMILES: "Cc1c[nH]c2ncnc(N3C=C(c4cc[nH]n4)SCC3)c12"
  IC50 / µM: 5.2
- CHEM_SMILES: "Cn1nccc1C1=CN(c2ncnc3[nH]cnc23)CCS1"
  IC50 / µM: 7.2

## Input Requested read-out: IC50. Entry: FC(F)(F)COc1cc(N2C=C(c3ccnc4[nH]ccc34)SCC2)ncn1
## Output 0.82

## Input Requested read-out: IC50. Entry: C[C@@H]1C[C@@H](N)CN(C(=O)C2=CN(c3ncnc4[nH]ccc34)CCS2)C1
## Output 0.006

## Input Requested read-out: IC50. Entry: NCCCNC(=O)C1=CN(c2ncnc3[nH]ccc23)CCS1
## Output 0.36

## Input Requested read-out: IC50. Entry: Fc1cncnc1N1C=C(c2ccnc3[nH]ccc23)SCC1
## Output 0.037

## Input Requested read-out: IC50. Entry: N[C@@H]1CCCC[C@@H]1NC(=O)C1=CN(c2ncnc3[nH]ccc23)CCS1
## Output 0.13

====

Experiment: Inhibition of DNAJB1-PKAcalpha (unknown origin) using biotinylated-peptide substrate CREB incubated for 45 mins in presence of ATP and cAMP by ELISA
Set-up: species or system Homo sapiens
EXPERIMENTAL_ENDPOINT: IC50

- CHEM_SMILES: "Cc1ncoc1C1=CN(c2ncnc3[nH]cc(C)c23)CCS1"
  EXPERIMENTAL_RESULT: "> 10000 nM"
- CHEM_SMILES: "O=C(N[C@H](c1ccccc1)[C@@H]1CCCN1)C1=CN(c2ncnc3[nH]ccc23)CCS1"
  EXPERIMENTAL_RESULT: "640 nM"
- CHEM_SMILES: "Cc1ncc(C2=CN(c3ncnc4[nH]cnc34)CCS2)o1"
  EXPERIMENTAL_RESULT: "5200 nM"

## Input Requested read-out: IC50. Entry: C1=C(c2ccnc3[nH]ccc23)SCCN1c1ccncn1
## Output 6.3 nM

## Input Requested read-out: IC50. Entry: C1=C(c2ccnc3[nH]ccc23)SCCN1c1ncnc2occc12
## Output 19 nM

## Input Requested read-out: IC50. Entry: C1=C(c2ccnc3[nH]ccc23)SCCN1c1cc(N2CCOCC2)ncn1
## Output 600 nM

## Input Requested read-out: IC50. Entry: C[C@H](N)CNC(=O)C1=CN(c2ncnc3[nH]ccc23)CCS1
## Output 180 nM

## Input Requested read-out: IC50. Entry: C[C@H]1C[C@@H](N)CN(C(=O)C2=CN(c3ncnc4[nH]ccc34)CCS2)C1
## Output 6 nM

====

Test: Inhibition of DNAJB1-PKAcalpha (unknown origin) using biotinylated-peptide substrate CREB incubated for 45 mins in presence of ATP and cAMP by ELISA
Design: species or system Homo sapiens
pIC50: −log10 of the molar value.
Decision: pIC50 >= 6 yields Met, all other cases yield Not met.

Reference set, count: 5
- CHEM_SMILES: "Cc1cc(N2C=C(c3ccnc4[nH]ccc34)SCC2)nc(C(C)(C)C)n1"
  LABEL_CLASS: "Not met"
- CHEM_SMILES: "O=C(N[C@H](c1ccccc1)[C@H]1CCCN1)C1=CN(c2ncnc3[nH]ccc23)CCS1"
  LABEL_CLASS: "Met"
- CHEM_SMILES: "Cn1cc(C2=CN(c3ncnc4[nH]ccc34)CCS2)cn1"
  LABEL_CLASS: "Met"
- CHEM_SMILES: "CN[C@H]1CCCN(C(=O)C2=CN(c3ncnc4[nH]cc(C)c34)CCS2)C1"
  LABEL_CLASS: "Met"
- CHEM_SMILES: "Cc1cc(N2C=C(c3ccnc4[nH]ccc34)SCC2)nc(N(C)C)n1"
  LABEL_CLASS: "Not met"

## Input Decide: pIC50 of NCCCCNC(=O)C1=CN(c2ncnc3[nH]ccc23)CCS1 >= 6?
## Output Met

## Input Decide: pIC50 of CN[C@H]1CCCN(C(=O)C2=CN(c3ncnc4[nH]ccc34)CCS2)C1 >= 6?
## Output Met

## Input Decide: pIC50 of CN(CCN)C(=O)C1=CN(c2ncnc3[nH]ccc23)CCS1 >= 6?
## Output Met

## Input Decide: pIC50 of O=C(C1=CN(c2ncnc3[nH]ccc23)CCS1)N1CCc2nc[nH]c2C1 >= 6?
## Output Met

====

Biological target: hERG (KCNH2) (Homo sapiens)
Sequence (Q12809 whole entry): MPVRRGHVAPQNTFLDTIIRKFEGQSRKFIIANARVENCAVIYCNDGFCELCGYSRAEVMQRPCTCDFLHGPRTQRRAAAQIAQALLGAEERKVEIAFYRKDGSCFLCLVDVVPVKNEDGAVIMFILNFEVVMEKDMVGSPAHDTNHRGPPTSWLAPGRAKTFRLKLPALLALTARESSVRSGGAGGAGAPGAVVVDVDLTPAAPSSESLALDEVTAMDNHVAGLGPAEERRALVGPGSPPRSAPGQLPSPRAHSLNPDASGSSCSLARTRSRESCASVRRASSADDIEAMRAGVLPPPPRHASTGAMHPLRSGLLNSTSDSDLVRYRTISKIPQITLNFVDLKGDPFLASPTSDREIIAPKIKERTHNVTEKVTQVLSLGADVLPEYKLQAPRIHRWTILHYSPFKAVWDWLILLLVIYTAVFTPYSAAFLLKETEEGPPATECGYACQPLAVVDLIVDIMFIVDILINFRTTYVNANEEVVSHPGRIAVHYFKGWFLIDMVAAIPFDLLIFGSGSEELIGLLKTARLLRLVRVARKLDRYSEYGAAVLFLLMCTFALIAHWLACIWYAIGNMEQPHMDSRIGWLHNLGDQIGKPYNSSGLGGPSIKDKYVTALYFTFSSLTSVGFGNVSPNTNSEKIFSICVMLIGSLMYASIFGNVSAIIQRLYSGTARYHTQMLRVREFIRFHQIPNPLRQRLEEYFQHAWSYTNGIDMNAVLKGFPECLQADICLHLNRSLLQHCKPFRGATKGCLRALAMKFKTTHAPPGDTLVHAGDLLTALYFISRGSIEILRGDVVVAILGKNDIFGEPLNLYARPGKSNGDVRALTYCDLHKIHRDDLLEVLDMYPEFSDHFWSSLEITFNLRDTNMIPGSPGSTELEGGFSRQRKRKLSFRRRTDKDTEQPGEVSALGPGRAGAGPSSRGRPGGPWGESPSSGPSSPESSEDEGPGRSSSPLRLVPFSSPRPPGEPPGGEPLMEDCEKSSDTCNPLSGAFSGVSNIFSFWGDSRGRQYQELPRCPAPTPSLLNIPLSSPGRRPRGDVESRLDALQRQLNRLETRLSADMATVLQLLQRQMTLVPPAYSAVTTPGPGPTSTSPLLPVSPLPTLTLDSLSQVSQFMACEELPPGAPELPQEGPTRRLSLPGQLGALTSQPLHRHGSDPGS
Test: Inhibition of human ERG expressed in CHO cells at 10 uM by electrophysiological analysis relative to control
Format: toxicity, cell-based
Settings: CHO cells that express human ERG
The molecules listed here are annotated with their inhibition at 10 µM.
Just the number in %, nothing appended.

- CHEM_SMILES: "O=C(N[C@@H](c1ccccc1)[C@H]1CCCN1)C1=CN(c2ncnc3[nH]ccc23)CCS1"
  EXPERIMENTAL_ENDPOINT: "inhibition at 10 µM"
  EXPERIMENTAL_RESULT: 33

Attention now turns to another entry.
## Input Requested read-out: inhibition at 10 µM. Entry: Cc1c[nH]c2ncnc(N3C=C(C(=O)N4CCC[C@@H](N)C4)SCC3)c12
## Output 28

====

Target: Dual specificity protein kinase CLK1 (Homo sapiens) (UniProt P49759)
Sequence (P49759 whole entry, looked up): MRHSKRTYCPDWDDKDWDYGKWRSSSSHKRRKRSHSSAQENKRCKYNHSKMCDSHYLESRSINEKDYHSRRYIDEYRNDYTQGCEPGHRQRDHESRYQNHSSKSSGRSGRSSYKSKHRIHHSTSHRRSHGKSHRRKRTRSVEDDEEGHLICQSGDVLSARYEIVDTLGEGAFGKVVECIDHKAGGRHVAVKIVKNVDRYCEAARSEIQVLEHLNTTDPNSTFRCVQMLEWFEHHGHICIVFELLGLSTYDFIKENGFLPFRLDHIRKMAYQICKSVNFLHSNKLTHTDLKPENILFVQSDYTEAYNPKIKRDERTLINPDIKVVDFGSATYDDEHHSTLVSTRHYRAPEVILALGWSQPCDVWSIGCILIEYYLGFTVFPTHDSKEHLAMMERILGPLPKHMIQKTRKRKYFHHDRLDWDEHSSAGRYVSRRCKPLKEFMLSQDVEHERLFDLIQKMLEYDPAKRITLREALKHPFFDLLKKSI
Assay: Inhibition of human CLK1 at 50 nM in presence of ATP by radiometric Hotspot kinase assay relative to control
Active and inactive are the calls of the source. The rule behind the calls is not given here.
EXPERIMENTAL_ENDPOINT: inhibition

The examples below pair each entry with its known result.
- CHEM_SMILES: "Cn1cncc1C1=CN(c2ncnc3[nH]cnc23)CCS1"
  inhibition: "Active"
- CHEM_SMILES: "Cc1c[nH]c2ncnc(N3C=C(C(=O)N4CCC[C@@H](N)C4)SCC3)c12"
  inhibition: "Active"
- CHEM_SMILES: "C1=C(c2ccnc3[nH]ccc23)SCCN1c1ncnc2[nH]ccc12"
  inhibition: "< 50%"
- CHEM_SMILES: "Cn1cncc1C1=CN(c2ccnc3[nH]ccc23)CCS1"
  inhibition: "Active"

Attention now turns to another entry.
## Input Requested read-out: inhibition. Entry: Cn1cncc1N1C=C(c2ccnc3[nH]ccc23)SCC1
## Output < 50%

====

Assay: Inhibition of DNAJB1-PKAcalpha (unknown origin) using biotinylated-peptide substrate CREB incubated for 45 mins in presence of ATP and cAMP by ELISA
Set-up: species or system Homo sapiens
pIC50: −log10 of the molar value.
Decision: pIC50 >= 6 yields Met, all other cases yield Not met.

Reference set, count: 5
- CHEM_SMILES: "N[C@H]1CCCN(C(=O)C2=CN(c3ccnc4[nH]ccc34)CCS2)C1"
  LABEL_CLASS: "Met"
- CHEM_SMILES: "Cc1cc(N2C=C(c3ccnc4[nH]ccc34)SCC2)nc(N2CCCCC2)n1"
  LABEL_CLASS: "Not met"
- CHEM_SMILES: "CC(C)(N)CNC(=O)C1=CN(c2ncnc3[nH]ccc23)CCS1"
  LABEL_CLASS: "Met"
- CHEM_SMILES: "N[C@@H]1CCCCN(C(=O)C2=CN(c3ncnc4[nH]ccc34)CCS2)C1"
  LABEL_CLASS: "Met"
- CHEM_SMILES: "Cc1c[nH]c2ncnc(N3C=C(c4cncn4C)SCC3)c12"
  LABEL_CLASS: "Met"

## Input Decide: pIC50 of Cn1nccc1C1=CN(c2ncnc3[nH]ccc23)CCS1 >= 6?
## Output Not met

## Input Decide: pIC50 of N[C@H]1CCCC[C@H]1NC(=O)C1=CN(c2ncnc3[nH]ccc23)CCS1 >= 6?
## Output Not met

## Input Decide: pIC50 of C1=C(c2cnco2)SCCN1c1ncnc2[nH]cnc12 >= 6?
## Output Not met
